measured_on: FGFR1 (UniProt P11362)
Sequence (P11362 whole entry, looked up): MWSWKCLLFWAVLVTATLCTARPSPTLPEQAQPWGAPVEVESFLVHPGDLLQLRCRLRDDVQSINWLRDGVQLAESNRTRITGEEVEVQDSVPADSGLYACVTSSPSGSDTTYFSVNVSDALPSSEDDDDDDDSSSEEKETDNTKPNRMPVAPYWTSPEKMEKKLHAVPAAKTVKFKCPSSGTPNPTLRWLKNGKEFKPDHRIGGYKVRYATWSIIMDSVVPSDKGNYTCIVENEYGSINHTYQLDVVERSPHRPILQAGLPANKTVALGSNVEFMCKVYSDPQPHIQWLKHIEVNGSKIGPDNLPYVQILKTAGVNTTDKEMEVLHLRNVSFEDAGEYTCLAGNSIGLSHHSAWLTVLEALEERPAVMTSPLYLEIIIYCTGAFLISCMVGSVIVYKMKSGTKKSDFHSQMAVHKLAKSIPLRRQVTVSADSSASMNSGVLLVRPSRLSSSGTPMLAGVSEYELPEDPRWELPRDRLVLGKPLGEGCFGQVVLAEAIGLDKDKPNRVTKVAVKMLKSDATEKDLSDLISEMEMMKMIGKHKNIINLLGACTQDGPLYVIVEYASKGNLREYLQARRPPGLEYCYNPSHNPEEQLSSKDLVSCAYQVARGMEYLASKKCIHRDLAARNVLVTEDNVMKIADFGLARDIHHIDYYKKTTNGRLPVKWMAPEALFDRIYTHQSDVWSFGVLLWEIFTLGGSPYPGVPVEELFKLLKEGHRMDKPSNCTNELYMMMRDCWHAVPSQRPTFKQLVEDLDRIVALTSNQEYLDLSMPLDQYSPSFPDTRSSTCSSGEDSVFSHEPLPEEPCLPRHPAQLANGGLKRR
measurement_protocol: phosphorylation enrichment, bacterial display (enrichment ratio); higher = better substrate or ligand; peptides without Tyr show the background
Tag: 1 if measured phosphorylation enrichment is not below 0.6, -1 if it is.

{"entry_sequence": "GDFLSYREFHL [ERBIN_Y1107_S1112L_YF]", "group": -1}
{"entry_sequence": "WNRDKYAATTT [TRIM39_Y439_G436R]", "group": -1}
{"entry_sequence": "FADTAYNYRHG [PAH_Y166_I164T]", "group": 1}

Prompt: State whether the measured phosphorylation enrichment reaches 0.6, counting equality as reaching it, for ILGLEYSLRLP [HELZ2_Y1304_V1308L]
Response: -1

Prompt: Hello, I need to know if PPGRSYSPYDY [TNS1_Y793] has measured phosphorylation enrichment not below 0.6. Thanks!
Response: 1

Prompt: Determine whether this sequence has phosphorylation enrichment no lower than 0.6: NNIDYYKKTTN [FGFR2_Y657]
Response: -1

###

measured_on: SHP2-C SH2
measurement_protocol: SH2 binding enrichment of the phosphorylated peptide, bacterial display (enrichment ratio); higher = better substrate or ligand; peptides without Tyr show the background
metric: SH2 binding enrichment
One number for each entry.

Answered examples (6):
{"entry_sequence": "DSFSSYCNAVA [SLC20A2_Y436_YF]", "SH2 binding enrichment": 1.18}
{"entry_sequence": "FSAGTYPRMEE [SYCN_Y108_L111M]", "SH2 binding enrichment": 0.691}
{"entry_sequence": "ARMTNYGLPRY [TSPAN12_Y138]", "SH2 binding enrichment": 0.761}
{"entry_sequence": "NTFEKYWLFFQ [GATM_Y103_P105L_YF]", "SH2 binding enrichment": 0.886}
{"entry_sequence": "RFLRGYQQDAY [HLA-A_Y137_R138Q]", "SH2 binding enrichment": 0.713}
{"entry_sequence": "QSQQAYQEAFE [YWHAZ_Y149]", "SH2 binding enrichment": 0.526}

Return reported SH2 binding enrichment values for all items listed beneath this line.
1. SDVDLYQVRTA [PSMD9_Y70]
2. RGDSAYHSQRH [ERBB3_Y1132]
3. RRFVFYFSFLL [PTEN_Y177_YF]
4. CTIIHYNYMCN [TP53_Y234_T231I]
5. TLKDVCDDGKF [RPS6KA3_Y483_Y483C_YF]
6. LGIDRYHAIVY [NPSR1_Y147_S143G]
7. HILRVYSGVLP [PCNX4_Y999_G1000S]

Response:
0.599
0.65
0.688
1.76
0.809
0.818
1.26

For the 5 sequences below, give their SH2 binding enrichment values.
1. CPASVYTKRCS [CPT2_Y508_R503C]
2. SLALFYRNVYH [RBL1_Y792_K794N]
3. LWQSIYNLDAE [TNNT2_Y251_E254D]
4. HVPEEYKPKQG [SAXO2_Y37]
5. AQQPIYVRVEG [NLRP7_Y318]

Response:
1: 0.765; 2: 0.566; 3: 0.639; 4: 0.674; 5: 0.682

I need SH2 binding enrichment for every entry listed below, if you could help.
1. DSFATYFRWVL [H2BW1_Y84_R87W]
2. GGDAVYTNGAI [RFX2_Y82]
3. YENGEYIVRQG [PRKG1_Y247_I249V]
4. FFSSEYHCVGG [CTSC_Y345_Y347C_YF]

Response:
1.32
0.594
1.14
0.8

Quick request: SH2 binding enrichment for each listed item, please.
1. MGHVNYGAYIN [GLB1_Y485_R482H]
2. ALTDNYMFLVI [HAGH_Y61_YF]
3. ALAHKYLGGGG [HBB_Y146_H147L]
4. TDGNGYISFNE [LCP1_Y28]
5. LIYTNYEAGKD [GSTP1_Y112]
6. YTTIHYNYMCN [TP53_Y234_C229Y]
7. NVFGNYNQQPS [HNRNPA2B1_Y306_D302V]
8. ALVDTYCRHNY [HLA-DRB1_Y107_A103L]

Response:
1: 0.902; 2: 0.441; 3: 0.608; 4: 1.98; 5: 0.568; 6: 2.47; 7: 0.682; 8: 0.79

###

measured_on: Grb2 SH2 (UniProt P62993)
Sequence (P62993 whole entry, looked up): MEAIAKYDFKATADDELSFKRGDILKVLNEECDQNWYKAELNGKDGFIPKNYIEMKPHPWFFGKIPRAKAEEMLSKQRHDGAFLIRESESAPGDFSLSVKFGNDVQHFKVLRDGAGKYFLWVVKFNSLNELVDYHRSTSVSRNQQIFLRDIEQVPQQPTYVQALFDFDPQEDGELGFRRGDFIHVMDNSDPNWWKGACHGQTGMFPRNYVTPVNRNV
measurement_protocol: SH2 binding enrichment of the phosphorylated peptide, bacterial display (enrichment ratio); higher = better substrate or ligand; peptides without Tyr show the background
Mark not met for SH2 binding enrichment values under 0.9, and met for everything at or above.

Some solved entries appear below for comparison.
{"entry_sequence": "HILRVYSGVLP [PCNX4_Y999_G1000S]", "group": "met"}
{"entry_sequence": "QYNIQYSSSAA [ERBB2IP_Y981]", "group": "met"}
{"entry_sequence": "YFVVEYRDQKP [MUC17_Y4332]", "group": "met"}
{"entry_sequence": "AAFNRYDQERF [CDC73_Y293_YF]", "group": "not met"}
{"entry_sequence": "VEYAKYGSLRG [RET_Y809]", "group": "not met"}

Prompt: Could you tell me if the measured SH2 binding enrichment of SCTFTYLLGDR [ETHE1_Y38] reaches 0.9 or more?
Response: not met

Prompt: Kindly determine if SH2 binding enrichment recorded for CEHRGFLYLAI [TEK_Y897_Y897F] is above or exactly 0.9.
Response: met

Prompt: Could you tell me if the measured SH2 binding enrichment of PDDPSYSLVDD [PSTPIP2_Y323_N322S] reaches 0.9 or more?
Response: met

###

Please provide measured phosphorylation enrichment for the entries that follow.
System: c-Abl (mouse)
measurement_protocol: phosphorylation enrichment, bacterial display (enrichment ratio); higher = better substrate or ligand; peptides without Tyr show the background
Numbers only.

{"entry_sequence": "GGQDVYGDFGG [Probound]", "phosphorylation enrichment": 0.939}

# batch size: 7; output phosphorylation enrichment per entry
1. ILGRTYYVNHE [NEDD4_Y627]
2. APIEDYGGGGG [B4GALT6_Y382]
3. DPNQQYYIAMD [TBX15_Y159_H156N]
4. VQNIVYHTASI [CYP39A1_Y102_R103H]
5. DSFSSYCNAVA [SLC20A2_Y436_YF]
6. PARLEYFENEK [IRS1_Y46_YF]
7. TLNHQYDYTFH [CSNK1A1_Y292_D297H]

Response:
0.725
0.661
0.571
0.824
0.801
0.999
0.512

Below are some sequences; for each one, tell me its phosphorylation enrichment.
1. KNILCYIQGGS [HYDIN_Y4610]
2. IVAREYYSEAD [CAMK2A_Y106]
3. EQKRFYNAMKK [SCN5A_Y1495_K1493R_YF]
4. DHTVNYVLKCR [PLEKHG4_Y1068_R1064H]

Response:
[0.977, 0.664, 0.698, 0.859]

Answer for every listed entry: what is its phosphorylation enrichment? The entries follow.
1. SRVNKYSTAFG [GJB3_Y16_G12R]
2. FQLPFYNTVPS [BMPR1A_Y458_M460T_YF]

Response:
0.584
0.625

###

measured_on: Jak2 (UniProt O60674)
Sequence (O60674 whole entry, looked up): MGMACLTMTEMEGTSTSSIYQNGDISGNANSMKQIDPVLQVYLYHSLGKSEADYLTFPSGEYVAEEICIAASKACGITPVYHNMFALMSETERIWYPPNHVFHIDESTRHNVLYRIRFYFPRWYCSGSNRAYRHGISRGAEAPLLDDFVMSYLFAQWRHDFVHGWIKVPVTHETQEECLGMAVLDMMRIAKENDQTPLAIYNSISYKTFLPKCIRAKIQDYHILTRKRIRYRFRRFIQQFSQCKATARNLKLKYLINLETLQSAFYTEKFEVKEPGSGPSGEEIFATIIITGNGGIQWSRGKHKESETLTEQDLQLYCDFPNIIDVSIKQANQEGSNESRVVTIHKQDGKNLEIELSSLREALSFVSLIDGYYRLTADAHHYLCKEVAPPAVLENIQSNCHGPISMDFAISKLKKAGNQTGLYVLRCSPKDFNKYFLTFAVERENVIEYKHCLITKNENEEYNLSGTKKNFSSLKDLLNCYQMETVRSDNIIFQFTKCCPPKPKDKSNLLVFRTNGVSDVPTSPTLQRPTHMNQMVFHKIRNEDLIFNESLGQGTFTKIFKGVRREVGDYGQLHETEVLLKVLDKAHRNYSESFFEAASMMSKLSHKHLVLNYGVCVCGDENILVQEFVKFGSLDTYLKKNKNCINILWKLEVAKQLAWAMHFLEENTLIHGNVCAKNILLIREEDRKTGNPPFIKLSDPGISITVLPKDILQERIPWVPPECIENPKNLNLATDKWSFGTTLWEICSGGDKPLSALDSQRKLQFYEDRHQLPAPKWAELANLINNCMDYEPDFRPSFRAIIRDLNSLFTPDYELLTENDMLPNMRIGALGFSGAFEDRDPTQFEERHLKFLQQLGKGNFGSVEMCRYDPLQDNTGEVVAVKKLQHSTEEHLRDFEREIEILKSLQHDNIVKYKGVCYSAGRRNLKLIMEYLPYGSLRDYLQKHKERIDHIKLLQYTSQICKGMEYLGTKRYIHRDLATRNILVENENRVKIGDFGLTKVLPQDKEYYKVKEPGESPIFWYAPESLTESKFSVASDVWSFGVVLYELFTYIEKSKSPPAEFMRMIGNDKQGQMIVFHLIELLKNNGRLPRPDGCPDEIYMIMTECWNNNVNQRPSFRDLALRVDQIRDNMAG
measurement_protocol: phosphorylation enrichment, bacterial display (enrichment ratio); higher = better substrate or ligand; peptides without Tyr show the background
phosphorylation enrichment vs 0.9: at or above is 1.0, below is 0.0.

{"entry_sequence": "TDGNGYISFNE [LCP1_Y28]", "group": 0.0}

Prompt: Test whether the sequence LVSCAYQVARG [FGFR1_Y605] records phosphorylation enrichment of 0.9 or higher.
Response: 0.0

Prompt: Would you say DVMDLYKTLRG [NR3C1_Y30_F29L] shows phosphorylation enrichment at minimum 0.9?
Response: 0.0

Prompt: Check the entry KSLSQYLEMDK [CAGE1_Y438_V435L] : does phosphorylation enrichment equal or exceed 0.9?
Response: 0.0

Prompt: hey, is phosphorylation enrichment for this one >= 0.9? RLLVVFPWTQR [HBB_Y36_Y36F]
Response: 1.0

Prompt: Form field: phosphorylation enrichment at least 0.9? Entry: KVALPYKPFFF [POLE_Y100_YF]
Response: 0.0

Prompt: hey, is phosphorylation enrichment for this one >= 0.9? CRERPYGGGGG [FUS_Y526_R521C]
Response: 0.0

Prompt: Say whether CSEETYRLMLQ [RET_Y981_M980T] shows phosphorylation enrichment of 0.9 or more.
Response: 1.0

Prompt: State whether the measured phosphorylation enrichment reaches 0.9, counting equality as reaching it, for CLMILHRLKER [PTPRR_Y249_Y249H]
Response: 1.0

Prompt: Please check the record SDVDLYQVRTA [PSMD9_Y70] and state if its phosphorylation enrichment is at or above 0.9.
Response: 0.0

Prompt: Given YSSLGYPLPEG [ZSWIM4_Y87_P89L] , state whether its phosphorylation enrichment is at least 0.9.
Response: 0.0

Prompt: Hi, just wondering whether EDDIIYTQDFT [STK11_Y362] shows phosphorylation enrichment of 0.9 or higher.
Response: 1.0

Prompt: Assess whether reported phosphorylation enrichment for HSREDYFECFQ [ZIM2_Y411_Q408R] sits at 0.9 or higher.
Response: 1.0

Sourced from the supplement of paper PMC10065799
